- experimental target: human enzyme NAMPT (full length) (Homo sapiens, UniProt P43490)
- Construct: human enzyme NAMPT (full length)
- Sequence (P43490 whole entry): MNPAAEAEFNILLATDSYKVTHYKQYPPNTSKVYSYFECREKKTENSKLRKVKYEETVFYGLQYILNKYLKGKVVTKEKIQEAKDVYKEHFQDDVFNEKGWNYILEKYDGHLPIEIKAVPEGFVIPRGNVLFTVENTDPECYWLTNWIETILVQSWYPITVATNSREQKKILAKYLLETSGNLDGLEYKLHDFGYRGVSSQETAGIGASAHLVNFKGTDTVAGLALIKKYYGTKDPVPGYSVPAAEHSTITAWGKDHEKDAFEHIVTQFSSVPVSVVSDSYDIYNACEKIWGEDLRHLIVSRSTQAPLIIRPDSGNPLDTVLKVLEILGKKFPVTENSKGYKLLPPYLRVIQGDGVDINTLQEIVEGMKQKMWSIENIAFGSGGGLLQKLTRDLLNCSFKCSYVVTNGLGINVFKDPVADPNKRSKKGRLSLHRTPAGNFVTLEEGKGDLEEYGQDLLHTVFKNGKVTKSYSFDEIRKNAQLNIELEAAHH
- measurement protocol: NMN fluorescence biochemical assay (stimulation of NMN synthesis by NAMPT)
- condition notes: NMN fluorescence assay, purified human NAMPT 100 nM; concentration giving half-maximal activation; read-out: Enzymatic EC50
measurement kind: EC50

Input: Looking for the measured EC50 of Cn1ncc(Cl)c1CC1c2ccccc2C(=O)N1Cc1ccc(O)nc1 (stereo not shown) [Compound 578] , can you help?
Output: ≥ 5 µM

Input: Follow-up item: Cn1ncc(Cl)c1CC1c2ccccc2C(C)(C)N1Cc1cnc(O)s1 (stereo not shown) [Compound 614]
Output: 0.5 to 5 µM

Input: What about this molecule? Cn1ncc(Cl)c1CC1c2cc(CN3CCOCC3)ccc2C(=O)N1CC1CC2(CNC(=O)O2)C1 (stereo not shown) [Compound 461]
Output: 0.5 to 5 µM

Input: Check COc1ccc(CN2C(=O)c3ccccc3C2Cc2c(Cl)c(Cl)nn2C)cc1 (stereo not shown) [Compound 566] too.
Output: 0.5 to 5 µM

Input: Try this molecule too: Cc1ccnc(C#N)c1CC1c2cccc(F)c2C(=O)N1Cc1ccc2[nH]nnc2c1 (stereo not shown) [Compound 356]
Output: < 0.5 µM

Further cases:
Input: I'd like to know its EC50. The molecule in question is CN1CCn2c(cc(Cl)c2CC2c3ccccc3C(=O)N2CC2CC3(CNC(=O)O3)C2)C1 (stereo not shown) [Compound 484]
Output: 0.5 to 5 µM

Input: What do you get for CNCc1ccc2c(c1)C(=O)N(Cc1ccc3[nH]nnc3c1)C2Cc1c(Cl)cnn1C (stereo not shown) [Compound 422] ?
Output: ≥ 5 µM

Input: Please answer likewise for Cn1ncc(Cl)c1CC1c2ccccc2C(=O)N1CC1CC2(C1)OC(=O)NC2=O (stereo not shown) [Compound 587]
Output: ≥ 5 µM

Input: Moving on to O=C1CC2(CN1)CC(CN1C(=O)c3ccccc3C1Cc1ncccc1Br)C2 (stereo not shown) [Compound 424]
Output: ≥ 5 µM

Input: Please give the result for COc1ccc(CN2C(=O)c3ccccc3C2Cc2c(Cl)ccn(C)c2=O)cn1 (stereo not shown) [Compound 625] too.
Output: 0.5 to 5 µM

Input: Please give the result for Cc1cncc(C#N)c1CC1c2ccccc2C(=O)N1Cc1ccc2[nH]nnc2c1 (stereo not shown) [Compound 364] too.
Output: < 0.5 µM

* * *

Measured EC50, listed per entry.
- experimental target: human enzyme NAMPT (full length) (Homo sapiens, UniProt P43490)
- Construct: human enzyme NAMPT (full length)
- measurement protocol: NMN fluorescence biochemical assay (stimulation of NMN synthesis by NAMPT)
- condition notes: NMN synthesis by purified human NAMPT (100 nM); concentration giving half-maximal activation; read-out: Enzymatic EC50

These solved cases illustrate the format of a correct answer.
Input: What EC50 value was documented for this compound, O=C1c2ccccc2CN1Cc1ccc2[nH]c(=O)oc2c1 ?
Output: ≥ 5 µM

Input: Item: CC1c2cc(C3COC3)ccc2C(=O)N1Cc1ccc2[nH]c(=O)oc2c1 (single isomer, unassigned)
Output: 0.5 to 5 µM

Further cases:
Input: Need EC50 of CNC(=O)c1ccc2c(c1)C(C)N(Cc1ccc3[nH]c(=O)oc3c1)C2=O (stereo not shown) , thanks.
Output: ≥ 5 µM

Input: Same lookup for Nc1ccccc1CC1c2ccccc2C(=O)N1Cc1ccc2[nH]c(=O)oc2c1 (stereo not shown) , please.
Output: 0.5 to 5 µM

* * *

- experimental target: human enzyme NAMPT (full length) (Homo sapiens)
- Construct: human enzyme NAMPT (full length)
- measurement protocol: NMN fluorescence biochemical assay (stimulation of NMN synthesis by NAMPT)
- condition notes: fold change of maximal activation compared to DMSO
- Protocol: Certain compounds described herein were assayed for their ability to stimulate the synthesis of nicotinamide mononucleotide (NMN) by human enzyme NAMPT (full length). […] Fluorescence (Ex/Em=382/445 nm) was measured using an Envision plate reader. The potency measurements for the test compounds were quantified and represented as EC50 (concentration of a compound that gives half-maximal activation) and Emax (fold change of a compound's maximal activation compared to DMSO).
measurement kind: Enzymatic Emax

Input: Could you share which Enzymatic Emax value was measured for Cn1ncc(Cl)c1CC1c2cc(F)ccc2C(=O)N1Cc1ccc2[nH]nnc2c1 (centres unmarked) ?
Output: A (A>3)

Input: Another: COc1nn(C)c(CC2c3ccccc3C(=O)N2CC2CC3(CNC(=O)O3)C2)c1Cl (centres unmarked)
Output: B (3≥B>2)

Input: Also need Cn1ncc(Cl)c1CC1c2ccccc2C(=O)N1C[C@H]1C[C@@]2(CNC(=O)O2)C1 (some centres unmarked) , thanks.
Output: B (3≥B>2)

Input: Now the same for O=C1c2ccccc2C(CC2CCOCC2)N1Cc1ccc2[nH]c(=O)oc2c1 (centres unmarked)
Output: B (3≥B>2)

Input: Moving on to the next compound: N#Cc1cncc(Cl)c1CC1c2ccccc2C(=O)N1Cc1ccc2[nH]nnc2c1 (centres unmarked)
Output: A (A>3)

More entries:
Input: Which value of Enzymatic Emax has been reported for Cc1ncnc(C#N)c1CC1c2ccccc2C(=O)N1Cc1ccc2[nH]nnc2c1 (centres unmarked) in the records?
Output: B (3≥B>2)

Input: What do you have for Cn1nc(C#N)c(Cl)c1CC1c2ccccc2C(=O)N1CC1CC2(CNC(=O)O2)C1 (centres unmarked) ?
Output: B (3≥B>2)

* * *

- experimental target: human enzyme NAMPT (full length) (Homo sapiens)
- Construct: human enzyme NAMPT (full length)
- measurement protocol: NMN fluorescence biochemical assay (stimulation of NMN synthesis by NAMPT)
- condition notes: NMN fluorescence assay, purified human NAMPT 100 nM; concentration giving half-maximal activation; read-out: Enzymatic EC50
pEC50: −log10 of the molar value.
Attribute: pEC50

Input: Consider the molecule COc1ccc(CN2C(=O)c3ccccc3C2Cc2ncccc2Br)cc1 (centres unmarked) and give its measured pEC50.
Output: 5.30 to 6.30

Input: Follow-up entry: COc1ccc(CN2C(=O)c3ccccc3C2Cc2c(Cl)cnn2C)cn1 (centres unmarked)
Output: 5.30 to 6.30

Input: Request: Cn1nc(C(F)F)c(Cl)c1CC1c2ccccc2C(=O)N1Cc1ccc2[nH]nnc2c1 (centres unmarked)
Output: > 6.30

Input: Subsequent entry: COCc1ccc2c(c1)C(Cc1c(Cl)cnn1C)N(Cc1ccc3[nH]nnc3c1)C2=O (centres unmarked)
Output: > 6.30

Input: Now the molecule Cn1nc(CN2CCC2)c(Cl)c1CC1c2ccccc2C(=O)N1CC1CC2(CNC(=O)O2)C1 (centres unmarked)
Output: > 6.30

More entries:
Input: May I ask what pEC50 has been recorded for O=C1c2ccccc2C(Cc2ncccc2Br)N1Cc1ccc2[nH]c(O)nc2c1 (centres unmarked) ?
Output: ≤ 5.30

Input: Request: O=C1c2ccccc2C(Cc2ncccc2Br)N1Cc1ccc2[nH]nnc2c1F (centres unmarked)
Output: > 6.30

* * *

- Tested on: endogenous NAMPT in U2OS cells
- measurement protocol: Cellular NAD+ modulation assay (NAD/NADH-Glo, U2OS cells)
- Assay type: cell-based
- condition notes: Homo sapiens, 24 hours incubation, cellular NAD+
- Experimental: Certain compounds described herein were also assayed for their ability to stimulate the endogenous NAMPT in a native cellular environment in a cellular NAD^+ modulation assay. […] Luminescence was recorded using a luminometer. The potency measurements for the test compounds were quantified and represented as EC50 (concentration of a compound that gives half-maximal activation) and Emax (fold change of a compound's maximal activation compared to DMSO).
measurement kind: EC50

Here's what some known entries look like.
Input: Could you tell me which EC50 is on file for Cn1ncc(Cl)c1CC1c2cc(C#N)ccc2C(=O)N1CC1CC2(CNC(=O)O2)C1 (centres unmarked) ?
Output: 500 to 5000 nM

Input: Consider next the compound Cn1ncc(Cl)c1CC1c2ccccc2C(=O)N1C/C(F)=C\c1c[nH]nn1 (centres unmarked) in the same way.
Output: 500 to 5000 nM

Input: Proceed to Cc1ccnc(C(C)(C)O)c1CC1c2ccccc2C(=O)N1Cc1ccc2[nH]nnc2c1 (centres unmarked)
Output: < 500 nM

Next up:
Input: Endpoint output: EC50 of Cn1ncc(Cl)c1CC1c2ccccc2C(C)(C)N1Cc1cnc(O)s1 (centres unmarked) . Value?
Output: 5000 to 50000 nM

* * *

A collection of molecules and their measured EC50
- experimental target: human enzyme NAMPT (full length) (Homo sapiens)
- Construct: human enzyme NAMPT (full length)
- measurement protocol: NMN fluorescence biochemical assay (stimulation of NMN synthesis by NAMPT)
- condition notes: NMN synthesis by purified human NAMPT (100 nM); concentration giving half-maximal activation; read-out: Enzymatic EC50

Input: Could you tell me which EC50 is on file for O=c1[nH]c2ccc(CN3Cc4ccccc4S3(=O)=O)cc2o1 ?
Output: 0.5 to 5 µM

Input: Another molecule to look at: N#Cc1cccc(F)c1C[C@@H]1c2ccccc2C(=O)N1Cc1ccc2[nH]c(=O)oc2c1
Output: ≥ 5 µM

More entries:
Input: What measured EC50 goes with NC(=O)c1ccc2c(c1)C(=O)N(Cc1ccc(O)cc1)C2=O ?
Output: ≥ 5 µM

Input: What do you get for Cc1cccc2c1C(Cc1c(Cl)ccnc1C#N)N(Cc1ccc3[nH]c(=O)oc3c1)C2=O (stereo not drawn) ?
Output: 0.5 to 5 µM

Input: Moving on to the next molecule: O=C1c2ccccc2C(Cc2cccnc2F)N1Cc1ccc2[nH]c(=O)oc2c1 (stereo not drawn)
Output: 0.5 to 5 µM

Input: Next entry: CCC1c2ccccc2C(=O)N1Cc1ccc2[nH]c(=O)oc2c1 (stereo not drawn)
Output: ≥ 5 µM

Input: Cc1ccccc1CC1c2ncccc2C(=O)N1Cc1ccc2[nH]c(=O)oc2c1 (stereo not drawn) ?
Output: ≥ 5 µM

Input: Check O=C1c2ccccc2C(Cc2ccccc2)N1Cc1ccc2[nH]c(=O)oc2c1 (stereo not drawn) too.
Output: 0.5 to 5 µM

Input: Same question for Cn1ncc(Cl)c1C[C@@H]1c2ccccc2C(=O)N1C/C=C/c1c[nH]nn1 please.
Output: ≥ 5 µM
